- Test system: S. aureus RN450
- Protocol details: In Vitro Anti-Bacterial Activity Assay (MIC), gram positive
- Type: cell-based
- Protocol conditions: Staphylococcus aureus, RN450, 18 h, gram positive bacteria; read-out: Antibiotic Activity Gram + (MIC)
Observable: MIC

Study these solved cases before continuing.
CN(C)c1ccc(O)c2c1C[C@H]1C[C@H]3CC(O)=C(C(N)=O)C(=O)[C@@]3(O)C(O)=C1C2=O < 4 µg/mL
CC(=O)Cc1cc(N(C)C)c2c(c1O)C(=O)C1=C(O)[C@]3(O)C(=O)C(C(N)=O)=C(O)[C@@H](N(C)C)[C@@H]3C[C@@H]1C2 < 4 µg/mL

Here is the next item to consider.
Request: // returns reported MIC for input "CN(C)[C@@H]1C(O)=C(C(N)=O)C(=O)[C@@]2(O)C(O)=C3C(=O)c4c(O)ccc(-n5cccn5)c4C[C@H]3C[C@@H]12"
Result: < 4 µg/mL
